- run description: chemical genetic growth profiling, strain panel (AID 1159580);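 also: tested at 20 µM; growth read once vehicle control cultures reached saturation at 30 °C; 1 = growth at the plate median or of vehicle wells; lower values mean less growth of the strain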
- measurement setup: S. cerevisiae deletion strains, growth OD, locus YLR102C, strain apc9, active compounds read low
Hit rate of the full screen: of about 5,500 compounds, about 2,000 (36%) were called active. Roughly 18% stayed inconclusive and do not appear here. Some of the results follow.
observed property: normalized growth
Just the number, please, no unit after it.

Observe how each entry below is paired with its result.
CN1CCN(C2=Nc3cc(Cl)ccc3Nc3ccccc32)CC1 = 1.02
COc1cc(O)c2c(c1)C(=O)c1cc(C)cc(O)c1C2=O = 0.997
CC(=O)CCCCn1c(=O)c2c(ncn2C)n(C)c1=O = 0.997
O=C(c1ccccc1)c1ccc2n1CCC2C(=O)O (stereo not given) = 0.974
Cn1c(=O)[nH]c2nc[nH]c2c1=O = 1.01

Param item = CC(C)C1CCC(C(=O)N[C@@H](Cc2ccccc2)C(=O)O)CC1 (stereo not given in full) ; retrieve measured normalized growth.
0.999

Record: `O=C(Nc1ccc([N+](=O)[O-])cc1Cl)c1cc(Cl)ccc1O`
1

Record: C[C@]12[C@H](O)CC3C(CC[C@@H]4C[C@@H](O)CC[C@]34C)[C@@]1(O)CC[C@@H]2C1=CC(=O)OC1 (stereo not given in full)
0.982

Record: `Cn1cnc2c1c(=O)[nH]c(=O)n2C`
1.01

---

- run description: chemical genetic growth profiling, strain panel (AID 1159580);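 also: tested at 20 µM; growth read once vehicle control cultures reached saturation at 30 °C; 1 = growth at the plate median or of vehicle wells; lower values mean less growth of the strain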
- measurement setup: S. cerevisiae deletion strains, growth OD, locus YDR388W
The campaign covered roughly 5,500 compounds. About 2,000 (36%) were called active. Inconclusive results (about 18%) are left out. Rule as the data show it: active = normalized growth mostly below about 0.91 (no sharp cut-off); inconclusive = no clear call, values can overlap the other calls; inactive = mostly above about 0.92. This is one part of the list.
Select the matching outcome among TRUE for active, FALSE for inactive

Cn1c(=O)c2c(ncn2CCCl)n(C)c1=O = FALSE
Cc1c(NC(C)C)c(=O)n(-c2ccccc2)n1C = FALSE
O=C(Nc1ccc([N+](=O)[O-])cc1Cl)c1cc(Cl)ccc1O = FALSE
CCCCN(CC)c1c([N+](=O)[O-])cc(C(F)(F)F)cc1[N+](=O)[O-] = FALSE
Cn1cnc2c1c(=O)[nH]c(=O)n2C = FALSE
CC(=O)OC1CCC2(O)CC1(C)CCC1C2CC1(C)C (centres undefined) = FALSE

What call does the record list for `Cn1c(=O)[nH]c2nc[nH]c2c1=O` ?
FALSE

Record: `CCCN(CCC)c1c([N+](=O)[O-])cc(C(F)(F)F)cc1[N+](=O)[O-]`
FALSE

Record: COC(=O)C[C@H]1C(C)(C)[C@H](O)[C@@H]2CC3=C4CC(O)O[C@@H](c5ccoc5)[C@]4(C)CCC3[C@@]1(C)C2=O (some centres undefined)
FALSE

Record: ClC1C(Cl)C(Cl)C(Cl)C(Cl)C1Cl (centres undefined)
FALSE

Record: `COc1ccc(CC(=O)c2ccc(O)cc2O)cc1`
FALSE

---

- run description: chemical genetic growth profiling, strain panel (AID 1159580);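 also: tested at 20 µM; growth read once vehicle control cultures reached saturation at 30 °C; 1 = growth at the plate median or of vehicle wells; lower values mean less growth of the strain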
- measurement setup: S. cerevisiae deletion strains, growth OD, locus YPR167C, strain met16
In all, about 5,500 compounds went through this assay and about 2,000 (36%) were called active. Not shown: some 18% with an inconclusive outcome. No stated cut-off is given here; in the data, active means normalized growth mostly below about 0.91 (no sharp cut-off); inconclusive means no clear call, values can overlap the other calls; inactive means mostly above about 0.92. The list shows a part of the results.
Select the matching outcome among label 1 = active, label 0 = inactive

CC(NC(C)(C)C)C(=O)c1cccc(Cl)c1 (stereo unspecified) = label 0
CNC(C)(C)Cc1ccccc1 = label 0
COc1cc2cccc(OC)c(=O)c2c(OC)c1OC = label 0

What call does the record list for `CNC(=O)Oc1ccccc1OC(C)C` ?
label 0

Record: `O=c1c(O)cccc2cc(O)c(O)c(O)c12`
label 1

Record: `CC(C)OC(=O)Nc1cccc(Cl)c1`
label 0

The reported measurements were obtained from PubChem BioAssay AID1159580.
